Taken from ChEMBL document CHEMBL4145483.

Entries and their selectivity ratio
assay: Selectivity index, ratio of CC50 for African green monkey Vero 76 cells to EC50 for Coxsackievirus B5 Ohio-1 ATCC VR-29
Format: toxicity
assayContext: read-out: Ratio CC50/EC50

# smi, selectivity ratio
measured = [
    ("CCOC(=O)c1ccc(SCc2ccc3nc(OC)c(OC)nc3c2)nc1", "> 333"),
    ("COc1nc2ccc(CSc3ccc(C(=O)O)cn3)cc2nc1OC", 23),
    ("CCOC(=O)CC[C@H](NC(=O)c1ccc(SCc2ccc3nc(OC)c(OC)nc3c2)nc1)C(=O)OCC", "> 1.7"),
    ("COc1nc2ccc(CSc3ccc(C(=O)O)cc3)cc2nc1OC", 1080),
    ("CCOC(=O)c1ccc(SCc2ccc3nc(OC)c(OC)nc3c2)cc1", "> 1110"),
]
